# DETAILS: LC-MS determination in the acidic range, pH 2.7, 0.1% aqueous formic acid and acetonitrile
MEASUREMENT KIND: Log P [a]

>>> reported("CC(C)(c1c(F)cccc1F)C1CC(c2csc(C3CCN(C(=O)Nc4cc(C(F)F)ccc4C(F)F)CC3)n2)=NO1 (centres unmarked)")
4.29
>>> reported("O=C(Cn1nc(C(F)F)cc1C(F)F)N1CCC(c2nc(C3=NOC(CSc4ccccc4Cl)C3)cs2)CC1 (centres unmarked)")
3.68
>>> reported("Cc1cc(C(F)(F)F)nn1CC(=O)N1CCC(c2nc(C3=NOC(COc4c(Cl)cccc4Cl)C3)cs2)CC1 (centres unmarked)")
3.9
>>> reported("Cc1cc(C(F)(F)F)nn1CC(=O)N1CCC(c2nc(C3=NOC(COc4ccccc4)C3)cs2)CC1 (centres unmarked)")
3.27
>>> reported("C[Si](C)(c1ccccc1)C1CC(c2csc(C3CCN(C(=O)Cn4nc(C(F)F)cc4C(F)F)CC3)n2)=NO1 (centres unmarked)")
4.01

# credit: patent US20120122928A1
